# System: 3 persons
# test-description: Sensory analysis of odor/smell, color and taste of reacted samples (Examples 55-62)
# Format: in vivo
# test-conditions: Example 57, after reaction; 10 ml KH2PO4, pH 7.8, 2.5 h, 120 °C
# Method: The reaction partners were dissolved in water and then warmed glycerin (60° C.) was added. […] The taste test was performed as in Example 38. All samples were assessed at 22° C. after the Maillard reaction was stopped by placing the sealed vials in an ice bath. After 20 minutes in the ice bath the sealed vials were put in a water bath set to 22° C. The odor/smell was assessed independently by 3 persons; the final description was agreed after discussion. […]

compound: OC[C@H]1OC(O)[C@H](O)[C@@H](O)[C@@H]1O (stereo partly shown)
Smell: Burnt sugar
--
compound: O=C1O[C@@H]2[C@@H](O)[C@H](O)O[C@@H]2C1O (stereo partly shown)
Smell: Burnt sugar
